molecular target: Dual specificity tyrosine-phosphorylation-regulated kinase 1B (Homo sapiens); conditions: at 0.1 µM;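 also: values are mean percent inhibition of DYRK1B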
inhibition values for the molecules below.
# unit: % | format: bare number

# molecule, readout, output unit, data value
rows = [
    ("COc1cc2ncn(-c3cc(O[C@@H](C)c4ccccc4Cl)c(C(N)=O)s3)c2cc1OC", "inhibition", "%", -0.84),
    ("O=C1NC(=O)C(c2cccc(Cl)c2)=C1Nc1ccc(O)c(Cl)c1", "inhibition", "%", 1.51),
    ("CC1=C(C(=O)Nc2ccc3[nH]ncc3c2)C(c2ccc(F)cc2)NC(=O)N1 (stereo not given)", "inhibition", "%", -0.22),
    ("N#Cc1c(NC(=O)c2cccc3ccccc23)sc2c1CCCC2", "inhibition", "%", 0.47),
    ("CCn1c(-c2nonc2N)nc2ccncc21", "inhibition", "%", -0.02),
    ("Cc1nnc(-c2ccc(C)c(-c3ccc(C(=O)Nc4cccc(C#N)c4)cc3)c2)o1", "inhibition", "%", 0.45),
    ("CCn1c(-c2nonc2N)nc2cncc(C(=O)N3CCNCC3)c21", "inhibition", "%", 0.28),
    ("COC(=O)Nc1nc2cc(Oc3ccc(NC(=O)Nc4cccc(C(=O)O)c4)cc3)ccc2[nH]1", "inhibition", "%", -3.44),
    ("NS(=O)(=O)c1ccc(N/N=C2\\C(=O)Nc3ccc(C(=O)NCCc4c[nH]cn4)cc32)cc1", "inhibition", "%", 5.35),
    ("CNC(=O)c1cncc(/C=C/c2c(Cl)cccc2Cl)c1", "inhibition", "%", -1.13),
]

## Task Recorded inhibition for CS(=O)(=O)CCNCc1nc(-c2ccc3ncnc(Nc4ccc(F)c(Cl)c4)c3c2)cs1 , please?
## Result 0.27

## Task Fill in the blank: the reported inhibition of CCn1c(-c2nonc2N)nc2cnc(Oc3cccc(NC(=O)c4ccc(OCCN5CCOCC5)cc4)c3)cc21 is ____.
## Result 0.06

====

biological target: Tyrosine-protein kinase Fyn (Homo sapiens); settings: at 0.1 µM
Description: GSK_PKIS: FYN mean inhibition at 0.1 uM [Nanosyn]
Overview of reported inhibition across a group of molecules:
Give your result in % as a bare value.

Past entries and their recorded results:
# molecule, output unit, data value
records = [
    ("Nc1nc(-c2ccccn2)c(-c2ccc3ncccc3n2)s1", "%", -1.79),
    ("COC(=O)Nc1nc2cc(Oc3cccc(NC(=O)Nc4cc(C(F)(F)F)ccc4F)c3)ccc2[nH]1", "%", 1.12),
    ("COc1cc2ncn(-c3cc(O[C@@H](C)c4ccccc4Cl)c(C(N)=O)s3)c2cc1OC", "%", 3.53),
    ("CC1=C(C(=O)Nc2ccc3[nH]ncc3c2)C(c2ccc(F)cc2)NC(=O)N1 (stereo not given)", "%", 1.72),
    ("Cc1nn(C)c2cc(N(C)c3ccnc(Nc4cccc(S(N)(=O)=O)c4)n3)ccc12", "%", 4.56),
]

## Task Fill blank: measured inhibition of the molecule COc1ccc2cc(-c3c(-c4ccncc4)nc(-c4ccc([S+](C)[O-])cc4)n3C)ccc2c1 (stereo not given) is ____.
## Result 3.05

## Task If you can, please state the reported inhibition value of COc1ccc(-c2coc3ncnc(N)c23)cc1 .
## Result 0.65

## Task Suppose we examine the molecule Cn1cc(C=C2C(=O)Nc3cccnc32)c2ccccc21 ; what inhibition value has been reported?
## Result 4.64

## Task Item under review: Cc1nnc(-c2ccc(C)c(-c3ccc(C(=O)Nc4cccc(C#N)c4)cc3)c2)o1 . Reported inhibition?
## Result 3.8

## Task Consider the molecule CCCN1CCC=C(c2ccc(Nc3nc(Nc4ccccc4C(N)=O)c4cc[nH]c4n3)c(C)c2)C1 and give its measured inhibition.
## Result 4.83

The measured values listed here are drawn from ChEMBL document CHEMBL1961873.
